# credit: paper PMC9821907

Kindly supply the reported pIC50 values for the records listed here.
Test system: P. falciparum K1
Assay: In vitro microplate 3H-hypoxanthine incorporation assay against P. falciparum K1
Type: cell-based, Plasmodium falciparum
Details: K1 strain, resistant to chloroquine, sulfadoxine and pyrimethamine; average of four determinations; read-out: P. falciparum K1 IC50
One number for each entry, as −log10 of the molar value.

Cc1cc(N2CC3C(c4ccccc4)CC(N4CCCCC4)(CC3c3ccccc3)C2)nc(N)n1 (racemic) [Compound 7] :: 7.29

Next, consider the following compound.
Tested system P. falciparum K1; pIC50 recorded for Nc1cc(N2CCC3(N4CCCCC4)CC(c4ccccc4)C2C(c2ccccc2)C3)nc(N)n1 (racemic) [Compound 9] was 7.03

---

Test system: T. brucei rhodesiense STIB900
Assay: In vitro microplate resazurin assay against T. brucei rhodesiense
Type: cell-based
Conditions: Trypanosoma brucei, read-out: T. brucei rhodesiense STIB900 IC50
readout_kind: IC50 (nM)
Answers are plain numbers, in nM.

Entry Nc1nc(N)nc(Nc2ccc([As]3SCC(CO)S3)cc2)n1 (stereo not shown) [MEL, melarsoprol, reference compound] , IC50 reported as 10

---

Kindly supply the reported pIC50 values for the records listed here.
Test system: P. falciparum NF54
Assay: In vitro microplate 3H-hypoxanthine incorporation assay against P. falciparum NF54
Type: cell-based
Conditions: Plasmodium falciparum; NF54 strain, sensitive to chloroquine and pyrimethamine; average of four determinations; read-out: P. falciparum NF54 IC50
Procedure: Compounds were tested for their activities against Plasmodium falciparum NF54 (sensitive to chloroquine) and Trypanosoma brucei rhodesiense STIB900, via serial dilution assays. […] Their cytotoxicity was determined with rat skeletal myoblasts (L-6 cells). In vitro activity against erythrocytic stages of P. falciparum was determined using a ^3H-hypoxanthine incorporation assay using the drug sensitive NF54 strain [27] or the chloroquine- and pyrimethamine-resistant K1 strain [28]. […]
Numbers only, as −log10 of the molar value.

Would you please look over these solved cases?
Cc1cc(N2CC3C(c4ccccc4)CC(N4CCCC4)(CC3c3ccccc3)C2)nc(N2CCCC2)n1 (racemic) :: 7.06
Cc1cc(N2CC3C(c4ccccc4)CC(N4CCCCC4)(CC3c3ccccc3)C2)nc(N)n1 (racemic) :: 7.62
Nc1cc(N2CC3C(c4ccccc4)CC(N4CCCCC4)(CC3c3ccccc3)C2)nc(N)n1 (racemic) :: 7.64
Cc1cc(N2CCC3(N4CCCC4)C[C@H](c4ccccc4)C2[C@@H](c2ccccc2)C3)nc(N2CCCCC2)n1 (racemic) :: 6.39
Cc1cc(N2CC3C(c4ccccc4)CC(N4CCCC4)(CC3c3ccccc3)C2)nc(Cl)n1 (racemic) :: 6.55

Provide each entry's pIC50 from the list below.
1. Cc1cc(N2CC3C(c4ccccc4)CC(N4CCCCC4)(CC3c3ccccc3)C2)nc(N2CCCCC2)n1 (racemic)
2. Cc1cc(N2CCC3(N4CCCCC4)C[C@H](c4ccccc4)C2[C@@H](c2ccccc2)C3)nc(Cl)n1 (racemic)
3. Cc1cc(N2CCC3(N4CCCCC4)CC(c4ccccc4)C2C(c2ccccc2)C3)nc(N)n1 (racemic)
4. Cc1cc(N2CCC3(N4CCCCC4)C[C@H](c4ccccc4)C2[C@@H](c2ccccc2)C3)nc(N2CCCCC2)n1 (racemic)
5. Nc1cc(N2CCC3(N4CCCC4)CC(c4ccccc4)C2C(c2ccccc2)C3)nc(N)n1 (racemic)
6. Cc1cc(N2CC3C(c4ccccc4)CC(N4CCCCC4)(CC3c3ccccc3)C2)nc(N2CCCC2)n1 (racemic)
7. Cc1cc(N2CC3C(c4ccccc4)CC(N4CCCC4)(CC3c3ccccc3)C2)nc(N2CCCCC2)n1 (racemic)

output:
1: 6.22; 2: 6.16; 3: 6.67; 4: 5.33; 5: 7.10; 6: 5.28; 7: 5.42

Provide each entry's pIC50 from the list below.
1. Cc1cc(N2CC3C(c4ccccc4)CC(N4CCCC4)(CC3c3ccccc3)C2)nc(N)n1 (racemic)
2. Nc1cc(N2CCC3(N4CCCCC4)CC(c4ccccc4)C2C(c2ccccc2)C3)nc(N)n1 (racemic)
3. Cc1cc(N2CCC3(N4CCCC4)C[C@H](c4ccccc4)C2[C@@H](c2ccccc2)C3)nc(Cl)n1 (racemic)
4. Nc1cc(N2CC3C(c4ccccc4)CC(N4CCCC4)(CC3c3ccccc3)C2)nc(N)n1 (racemic)

output:
1. 7.21
2. 7.29
3. 5.98
4. 7.48

---

Test system: P. falciparum NF54
Assay: In vitro microplate 3H-hypoxanthine incorporation assay against P. falciparum NF54
Format: cell-based
Details: Plasmodium falciparum; NF54 strain, sensitive to chloroquine and pyrimethamine; average of four determinations; read-out: P. falciparum NF54 IC50
Kindly supply the reported IC50 values for the records listed here.
Give bare numbers, in nM.

Cc1cc(N2CCC3(N4CCCC4)CC(c4ccccc4)C2C(c2ccccc2)C3)nc(N)n1 (racemic) :: 88
Cc1cc(N2CC3C(c4ccccc4)CC(N4CCCCC4)(CC3c3ccccc3)C2)nc(Cl)n1 (racemic) :: 1490
Cc1cc(N2CCC3(N4CCCCC4)C[C@H](c4ccccc4)C2[C@@H](c2ccccc2)C3)nc(N2CCCC2)n1 (racemic) :: 617

Next, consider the following compound.
Tested system P. falciparum NF54; IC50 recorded for Cc1cc(N2CCC3(N4CCCC4)C[C@H](c4ccccc4)C2[C@@H](c2ccccc2)C3)nc(N2CCCC2)n1 (racemic) was 136

---

Tested on: P. falciparum K1
Assay: In vitro microplate 3H-hypoxanthine incorporation assay against P. falciparum K1
Format: cell-based, Plasmodium falciparum
Details: Plasmodium falciparum, K1, K1 strain, resistant to chloroquine, sulfadoxine and pyrimethamine; average of four determinations; read-out: P. falciparum K1 IC50
Experimental: Compounds were tested for their activities against Plasmodium falciparum NF54 (sensitive to chloroquine) and Trypanosoma brucei rhodesiense STIB900, via serial dilution assays. […] Their cytotoxicity was determined with rat skeletal myoblasts (L-6 cells). In vitro activity against erythrocytic stages of P. falciparum was determined using a ^3H-hypoxanthine incorporation assay using the drug sensitive NF54 strain [27] or the chloroquine- and pyrimethamine-resistant K1 strain [28]. […]
Output Satisfied for records whose IC50 is lower than 200 nM, Not satisfied for records at or above 200 nM.

Reference set, count: 10
CCc1nc(N)nc(N)c1-c1ccc(Cl)cc1 [PYR, pyrimethamine, reference compound] :: Not satisfied
Cc1cc(N2CC3C(c4ccccc4)CC(N4CCCCC4)(CC3c3ccccc3)C2)nc(N2CCCC2)n1 (racemic) :: Not satisfied
Cc1cc(N2CCC3(N4CCCC4)C[C@H](c4ccccc4)C2[C@@H](c2ccccc2)C3)nc(N2CCCC2)n1 (racemic) :: Satisfied
Cc1cc(N2CC3C(c4ccccc4)CC(N4CCCCC4)(CC3c3ccccc3)C2)nc(Cl)n1 (racemic) :: Not satisfied
Cc1cc(N2CCC3(N4CCCCC4)CC(c4ccccc4)C2C(c2ccccc2)C3)nc(N)n1 (racemic) :: Satisfied
Nc1cc(N2CCC3(N4CCCC4)CC(c4ccccc4)C2C(c2ccccc2)C3)nc(N)n1 (racemic) :: Not satisfied
Cc1cc(N2CCC3(N4CCCC4)C[C@H](c4ccccc4)C2[C@@H](c2ccccc2)C3)nc(Cl)n1 (racemic) :: Not satisfied
Cc1cc(N2CC3C(c4ccccc4)CC(N4CCCC4)(CC3c3ccccc3)C2)nc(N2CCCC2)n1 (racemic) :: Satisfied
Nc1cc(N2CC3C(c4ccccc4)CC(N4CCCC4)(CC3c3ccccc3)C2)nc(N)n1 (racemic) :: Satisfied
Cc1cc(N2CCC3(N4CCCCC4)C[C@H](c4ccccc4)C2[C@@H](c2ccccc2)C3)nc(Cl)n1 (racemic) :: Not satisfied

input: # check: IC50 < 200 nM for Cc1cc(N2CC3C(c4ccccc4)CC(N4CCCC4)(CC3c3ccccc3)C2)nc(Cl)n1 (racemic)
output: Not satisfied

input: # check: IC50 < 200 nM for Cc1cc(N2CC3C(c4ccccc4)CC(N4CCCCC4)(CC3c3ccccc3)C2)nc(N2CCCCC2)n1 (racemic)
output: Not satisfied

input: # check: IC50 < 200 nM for Nc1cc(N2CC3C(c4ccccc4)CC(N4CCCCC4)(CC3c3ccccc3)C2)nc(N)n1 (racemic)
output: Satisfied

---

Test: in vitro
Details: rat
readout_kind: log10(IC50 at 72 h) (log10 of the value in µM)
The figures below represent log10 of IC50 at 72 h, where IC50 at 72 h is stated in µM.

Would you please look over these solved cases?
Cc1cc(N2CC3C(c4ccccc4)CC(N4CCCC4)(CC3c3ccccc3)C2)nc(N2CCCCC2)n1 (racemic) :: 1.79
Cc1cc(N2CCC3(N4CCCC4)C[C@H](c4ccccc4)C2[C@@H](c2ccccc2)C3)nc(N2CCCCC2)n1 (racemic) :: 0.83
Cc1cc(N2CC3C(c4ccccc4)CC(N4CCCCC4)(CC3c3ccccc3)C2)nc(Cl)n1 (racemic) :: 1.43
Cc1cc(N2CCC3(N4CCCC4)C[C@H](c4ccccc4)C2[C@@H](c2ccccc2)C3)nc(N2CCCC2)n1 (racemic) :: 1.18
Cc1cc(N2CCC3(N4CCCCC4)CC(c4ccccc4)C2C(c2ccccc2)C3)nc(N)n1 (racemic) :: 1.03

Provide each entry's log10(IC50 at 72 h) from the list below.
1. Cc1cc(N2CCC3(N4CCCCC4)C[C@H](c4ccccc4)C2[C@@H](c2ccccc2)C3)nc(N2CCCCC2)n1 (racemic)
2. Cc1cc(N2CCC3(N4CCCCC4)C[C@H](c4ccccc4)C2[C@@H](c2ccccc2)C3)nc(Cl)n1 (racemic)
3. Cc1cc(N2CC3C(c4ccccc4)CC(N4CCCCC4)(CC3c3ccccc3)C2)nc(N)n1 (racemic)
4. Cc1cc(N2CCC3(N4CCCCC4)C[C@H](c4ccccc4)C2[C@@H](c2ccccc2)C3)nc(N2CCCC2)n1 (racemic)
5. Nc1cc(N2CC3C(c4ccccc4)CC(N4CCCCC4)(CC3c3ccccc3)C2)nc(N)n1 (racemic)

output:
2.02
0.49
0.90
1.37
0.64

Provide each entry's log10(IC50 at 72 h) from the list below.
1. Nc1cc(N2CCC3(N4CCCC4)CC(c4ccccc4)C2C(c2ccccc2)C3)nc(N)n1 (racemic)
2. CCN(CC)CCCC(C)Nc1ccnc2cc(Cl)ccc12 (stereo not shown) [CQ, chloroquine, reference compound]
3. Cc1cc(N2CC3C(c4ccccc4)CC(N4CCCCC4)(CC3c3ccccc3)C2)nc(N2CCCCC2)n1 (racemic)
4. Cc1cc(N2CC3C(c4ccccc4)CC(N4CCCC4)(CC3c3ccccc3)C2)nc(N)n1 (racemic)
5. Cc1cc(N2CC3C(c4ccccc4)CC(N4CCCC4)(CC3c3ccccc3)C2)nc(N2CCCC2)n1 (racemic)
6. Cc1cc(N2CCC3(N4CCCC4)C[C@H](c4ccccc4)C2[C@@H](c2ccccc2)C3)nc(Cl)n1 (racemic)

output:
[1.05, 1.96, 1.20, 0.65, 0.62, 0.98]

Provide each entry's log10(IC50 at 72 h) from the list below.
1. Nc1cc(N2CCC3(N4CCCCC4)CC(c4ccccc4)C2C(c2ccccc2)C3)nc(N)n1 (racemic)
2. Cc1cc(N2CCC3(N4CCCC4)CC(c4ccccc4)C2C(c2ccccc2)C3)nc(N)n1 (racemic)
3. Nc1cc(N2CC3C(c4ccccc4)CC(N4CCCC4)(CC3c3ccccc3)C2)nc(N)n1 (racemic)
4. Nc1nc(N)nc(Nc2ccc([As]3SCC(CO)S3)cc2)n1 (stereo not shown) [MEL, melarsoprol, reference compound]
5. Cc1cc(N2CC3C(c4ccccc4)CC(N4CCCC4)(CC3c3ccccc3)C2)nc(Cl)n1 (racemic)
6. Cc1cc(N2CC3C(c4ccccc4)CC(N4CCCCC4)(CC3c3ccccc3)C2)nc(N2CCCC2)n1 (racemic)

output:
[0.99, 1.10, 1.05, 0.89, 1.10, 1.77]
